assay.system: Inhibitor of NF-kappa-B kinase (IKK) (Homo sapiens, UniProt O14920+O15111+Q9Y6K9)
Sequence (O14920 whole entry): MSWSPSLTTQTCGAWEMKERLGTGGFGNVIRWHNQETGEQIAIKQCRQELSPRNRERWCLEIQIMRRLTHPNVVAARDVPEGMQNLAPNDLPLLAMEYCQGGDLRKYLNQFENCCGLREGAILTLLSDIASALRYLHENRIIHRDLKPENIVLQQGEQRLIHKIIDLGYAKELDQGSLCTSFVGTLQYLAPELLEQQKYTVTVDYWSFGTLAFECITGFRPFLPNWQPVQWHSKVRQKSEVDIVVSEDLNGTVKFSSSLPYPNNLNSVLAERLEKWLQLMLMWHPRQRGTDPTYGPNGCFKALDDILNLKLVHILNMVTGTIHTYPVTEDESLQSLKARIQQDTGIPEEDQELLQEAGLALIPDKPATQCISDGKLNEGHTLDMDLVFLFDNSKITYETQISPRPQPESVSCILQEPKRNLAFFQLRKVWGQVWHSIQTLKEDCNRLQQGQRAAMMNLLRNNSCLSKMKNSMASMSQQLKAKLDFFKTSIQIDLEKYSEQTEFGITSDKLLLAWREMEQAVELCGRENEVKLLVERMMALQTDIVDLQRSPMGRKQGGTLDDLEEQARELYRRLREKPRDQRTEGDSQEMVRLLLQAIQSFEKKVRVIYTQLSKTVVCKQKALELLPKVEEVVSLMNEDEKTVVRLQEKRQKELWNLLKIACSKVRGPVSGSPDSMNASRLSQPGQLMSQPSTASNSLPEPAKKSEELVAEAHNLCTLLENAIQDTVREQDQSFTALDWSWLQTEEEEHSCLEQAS
Sequence (O15111 whole entry): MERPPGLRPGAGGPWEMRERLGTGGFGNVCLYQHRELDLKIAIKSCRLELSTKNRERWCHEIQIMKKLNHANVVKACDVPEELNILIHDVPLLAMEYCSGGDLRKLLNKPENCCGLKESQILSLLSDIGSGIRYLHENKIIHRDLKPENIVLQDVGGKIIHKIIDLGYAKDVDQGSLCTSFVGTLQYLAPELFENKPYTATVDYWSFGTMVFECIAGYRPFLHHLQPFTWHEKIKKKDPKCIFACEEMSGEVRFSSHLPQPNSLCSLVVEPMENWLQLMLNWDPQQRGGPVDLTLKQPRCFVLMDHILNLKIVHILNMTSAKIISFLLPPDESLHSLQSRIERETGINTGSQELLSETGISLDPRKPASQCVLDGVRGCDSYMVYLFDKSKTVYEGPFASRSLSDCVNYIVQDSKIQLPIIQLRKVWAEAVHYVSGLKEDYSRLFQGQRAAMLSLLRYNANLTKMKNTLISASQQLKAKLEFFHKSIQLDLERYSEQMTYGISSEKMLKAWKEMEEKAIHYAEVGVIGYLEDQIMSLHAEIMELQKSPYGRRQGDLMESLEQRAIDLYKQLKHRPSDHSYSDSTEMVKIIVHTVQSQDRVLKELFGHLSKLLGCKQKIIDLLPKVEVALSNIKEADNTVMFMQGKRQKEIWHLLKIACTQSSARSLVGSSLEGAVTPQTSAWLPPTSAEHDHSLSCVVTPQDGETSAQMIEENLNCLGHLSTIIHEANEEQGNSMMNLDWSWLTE
Sequence (Q9Y6K9 whole entry): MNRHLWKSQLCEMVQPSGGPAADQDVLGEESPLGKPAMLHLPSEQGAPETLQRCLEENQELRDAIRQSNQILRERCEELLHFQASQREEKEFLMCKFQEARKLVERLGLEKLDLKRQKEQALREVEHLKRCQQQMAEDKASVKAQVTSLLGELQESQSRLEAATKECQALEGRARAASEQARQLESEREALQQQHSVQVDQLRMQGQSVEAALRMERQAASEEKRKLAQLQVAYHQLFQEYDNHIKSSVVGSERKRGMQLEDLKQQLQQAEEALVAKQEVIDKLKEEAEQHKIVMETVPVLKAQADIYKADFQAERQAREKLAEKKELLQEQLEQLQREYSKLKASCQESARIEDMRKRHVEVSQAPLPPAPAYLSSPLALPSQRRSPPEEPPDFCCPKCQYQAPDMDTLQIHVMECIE
assay.name: Inhibitory activity against IKK
Assay type: functional
pIC50: −log10 of the molar value.
recorded.metric: pIC50

### Prompt Form field: reported pIC50 of COc1cc(Nc2c(C#N)cnc3cc(-c4ccc(CN5CCN(C)CC5)cn4)sc23)c(Cl)cc1Cl
### Response < 5.00
